TARGET_DESC: pooled human IgG
ATTRIBUTE_MEASURED: Enzyme Activity Endpoint Assay: scIgG (ng/µL)
Answers are plain numbers, in ng/µL.

Lab note: each protein below needs its Enzyme Activity Endpoint Assay: scIgG filled in.
1. PRT-278 (protein) MVTSVWTKGVTPPTDFIYGEDVLHAPYKAGQGWYDITKLFNGKDNLLCGAATAGNMLHWWFDQNKEQIENYLKKHPEKQKIIFNNQELFDLKAAIDTKDSQLDSKLFDYFKEKAFPYLSTKHLGVFPDHVIDMFINGYRLSLTNHGPTPVKRGSKDKRGGIFDAVFTRGVQSKLLTNRHDLKNKTLKEISDLIKQELTEGKALGISHTYANVRINHVINLWGADFDAEGNLEAIYVTDSDTNPSIGMKKYFVGVNSSGKVAISAKEIEEDNIGAQVLGLFTLSTGQDIWNQTN
2. PRT-51 (protein) MANQEIRYSEVTPYHVTSVWTKGVTPPANFTQGEDVFHAPYVANQGWYDINKTFNGKDDLLCGAATAGNMLHWWFDQNKDYIDRYLKKHPEKAKINFNGEQMFDVKEAIDTKNDQLDSKLFEYFKEKAFPYLSTKHLGVFPDLVLDMFINGYRLSLTNHGPTPVKEGSKDPRGGFFDDVFTRGDQSKLLTSRHDFKEKNLEEISDLIKKELTEGKALGLSHTYANVRINHVINLWGADFDENGNLKAIYVTDSDSNASIGMKRYFVGVNSAGKVAISAKEIKEDNIGAQVLGLFTLSTGQDSWNQTN
3. PRT-33 (protein) MANQEIRYSEVTPYHVTSVWTKGVTPPANFTQGEDVFHAPYVANQGWYDITKTFNGKDDLLCGAATAGNMLHWWFDQNKDQIKRYLKEHPEKQKINFNGEQMFDVKEAIDTKNHQLDSKLFEYFKEKAFPYLSTKHLGVFPDHVIDMFINGYRLSLTNHGPTPVKEGSKDPRGGIFDAVFTRGDQSKLLTSRHDFKEKNLKEISDLIKKELTEGKALGLSHTYANVRINHVINLWGADFDSNGNLKAIYVTDSDSNASIGMKKYFVGVNSAGKVAISAKEIKEDNIGAQVLGLFTLSTGQDSWNQTN
4. PRT-54 (protein) MANQEIRYSEVTPYHVTSVWTKGVTPPANFTQGEDVFHAPYVANQGWYDITKTFNGKDDLLCGAATAGNMLHWWFDQNKDQIDRYLEEHPEKQKINFNGEQMFDVKEAIDTKNHQLDSKLFEYFKEKAFPYLSTKHLGVFPDLVIDMFINGYRLSLTNHGPTPVKEGSKDPRGGFFDAVFTRGDQSKLLTSRHDFKEKNLKEISDLIKKELTEGKALGLSHTYANVRINHVINLWGADFDSNGNLKAIYVTDSDSNASIGMKKYFVGVNSAGKVAISAKEIKEDNIGAQVLGLFTLSTGQDSWNQTN

[0, 0, 44, 10]
